# target of assay: hHER3 full length (human, UniProt P21860 20-1342)
# experiment: cell-based or functional assay
// reported IC50, HRG1-β1 induced pHER3, MCF-7 for each item listed
readout name: IC50, HRG1-β1 induced pHER3, MCF-7

INSERT INTO assay_data (binder, measured_value) VALUES
  ('17C08 (VHH, also called 17C8) VHH: EVQLVESGGGLMQAGDSLRLSCAASGRAFSSYALGWFRRAPGKERECVAATDRLGDNTYFPDSVKGRFTISRDNAKNTLYLQMNNLKPEDTAVYYCAAGAVRYGVSTSPMNYNYWGQGTQVTVSS', '8.98e-08 M'),
  ('21F06 (VHH, c-myc, His6-tagged form as expressed; also called 21F6; HER3MS21F06) VHH: EVQLVESGGGLVQAGGSLRLSCAASGRTYYLNAMGWFRQGPGKDREFVAAIDWSDGNKDYADSVKGRFTISRDNAKNTVYLQMNSLKPEDTAVYYCAADTPPWGPMIYIESYDSWGQGTQVTVSS', '6.79e-09 M');

Origin of values: patent US20130136748A1
